EXPERIMENTAL_TARGET: SA157*, separate mouse serum albumin fusions of the VL and VH domains of CK157 mixed in equimolar amounts
MEASUREMENT_PROTOCOL: FACS
# pKd per record follows
In textbook form, pKd equals minus log to base ten of the concentration in mol/L.

BINDER	pKd
mCXCL1 displayed on the surface of yeast as N-terminal fusion of Aga2p (ligand) APIANELRCQCLQTMAGIHLKNIQSLKVLPSGPHCTQTEVIATLKNGREACLDPEAPLVQKIVQKMLKGVPK	6.18

Moving on to another binder below.
Dear colleague, I am looking for the recorded pKd of the following binder: mCXCL2 displayed on the surface of yeast as N-terminal fusion of Aga2p (ligand) AVVASELRCQCLKTLPRVDFKNIQSLSVTPPGPHCAQTEVIATLKGGQKVCLDPEAPLVQKIIQKILNKGKAN
6.23
